Biological target: Human Serum Albumin (HSA) (Homo sapiens)
Sequence (P02768 25-609): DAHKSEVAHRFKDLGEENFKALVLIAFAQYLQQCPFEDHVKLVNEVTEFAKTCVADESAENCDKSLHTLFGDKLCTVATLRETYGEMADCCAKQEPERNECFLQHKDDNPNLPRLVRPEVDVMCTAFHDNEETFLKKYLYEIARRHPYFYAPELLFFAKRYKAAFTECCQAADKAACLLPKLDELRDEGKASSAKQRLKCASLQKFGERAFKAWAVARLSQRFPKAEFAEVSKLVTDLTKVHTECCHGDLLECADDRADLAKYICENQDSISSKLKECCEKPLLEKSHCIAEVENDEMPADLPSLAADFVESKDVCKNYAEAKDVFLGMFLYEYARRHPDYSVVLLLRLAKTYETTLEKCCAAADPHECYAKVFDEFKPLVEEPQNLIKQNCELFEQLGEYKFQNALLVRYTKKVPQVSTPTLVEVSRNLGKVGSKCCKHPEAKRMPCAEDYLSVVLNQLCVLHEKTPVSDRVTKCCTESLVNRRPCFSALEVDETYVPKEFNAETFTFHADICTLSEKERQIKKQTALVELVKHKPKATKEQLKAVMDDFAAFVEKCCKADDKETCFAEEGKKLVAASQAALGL
Test: ThermoFluor thermal shift assay with human serum albumin
Conditions: classified from KD versus IC50 and % displacement of 1,8-ANS
observedProperty: Type of HSA Binding Interaction

Sample answers from the record:
>>> observedresult("NS(=O)(=O)c1cc2c(cc1Cl)N=CNS2(=O)=O [Chlorothiazide, chlorothiazide]")
"Type 4"
>>> observedresult("C[C@]12CCC(=O)C=C1C=C[C@@H]1[C@@H]2CC[C@@]2(C)[C@H]1CC[C@@]2(O)CCC(=O)O [Canrenoate, canrenoate]")
"Type 4"
>>> observedresult("Nc1ccc(S(=O)(=O)Nc2nccs2)cc1 [Sulfathiazole, sulfathiazole]")
"Type 4"
>>> observedresult("CC(C(=O)O)c1ccc2c(c1)[nH]c1ccc(Cl)cc12 (stereo not shown) [Carprofen, carprofen]")
"Type 3"
>>> observedresult("CCC(Cc1c(I)cc(I)c(N)c1I)C(=O)O (stereo not shown) [Iodopanoate, iodopanoate]")
"Type 3"

Quick one: give me Type of HSA Binding Interaction for each item below, same order please.
1. COc1cc(NS(=O)(=O)c2ccc(N)cc2)nc(OC)n1 [Sulfadimethoxine, sulfadimethoxine]
2. CCCNC(=O)NS(=O)(=O)c1ccc(Cl)cc1 [Chlorpropamide, chlorpropamide]
3. CCC(Cc1c(I)cc(I)c(O)c1I)C(=O)O (stereo not shown) [Iophenoxate, iophenoxate]
4. O=c1c(O)c(-c2ccc(O)c(O)c2)oc2cc(O)cc(O)c12 [Quercetin, quercetin]
5. CC(C(=O)O)c1ccc(-c2ccccc2)c(F)c1 (stereo not shown) [Flurbiprofen, flurbiprofen]

1: Type 1; 2: Type 4; 3: Type 1; 4: Type 1; 5: Type 3
